Data provenance: patent US7964607B2

# MEASURED ON: human recombinant PDE9 enzyme (Homo sapiens, UniProt O76083)
# Construct: made in house; host or cells: SF-9 insect cells
# Sequence (O76083 whole entry): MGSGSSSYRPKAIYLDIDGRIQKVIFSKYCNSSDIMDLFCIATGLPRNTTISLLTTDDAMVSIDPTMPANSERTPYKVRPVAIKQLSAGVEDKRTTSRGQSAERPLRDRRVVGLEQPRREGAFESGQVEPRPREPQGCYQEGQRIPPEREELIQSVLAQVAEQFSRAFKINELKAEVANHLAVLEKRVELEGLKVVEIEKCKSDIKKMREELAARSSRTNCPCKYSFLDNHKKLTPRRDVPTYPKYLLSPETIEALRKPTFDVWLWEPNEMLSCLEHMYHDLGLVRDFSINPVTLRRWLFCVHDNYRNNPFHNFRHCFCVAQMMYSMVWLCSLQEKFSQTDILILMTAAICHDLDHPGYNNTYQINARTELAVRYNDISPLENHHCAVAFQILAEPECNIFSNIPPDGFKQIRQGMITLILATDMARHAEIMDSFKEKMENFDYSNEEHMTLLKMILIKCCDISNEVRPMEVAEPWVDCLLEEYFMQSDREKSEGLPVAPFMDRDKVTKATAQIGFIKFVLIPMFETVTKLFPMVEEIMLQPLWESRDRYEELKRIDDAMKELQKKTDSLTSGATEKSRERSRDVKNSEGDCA
# PROCEDURE TEXT: Phosphodiesterase 9 (PDE9) inhibitory activity, Scintillation Proximity (SPA) assay
# Format: biochemical
# CONDITION DETAILS: human recombinant PDE9 from SF-9 cells; 50 nM [3H]cGMP; room temperature, 30 min; Examples 3-114; read-out: G5678A (U): IC50
Lab note: compare IC50 with 4 nM, writing Y if less and N if equal or more.

Previously resolved entries follow.
>>> df
                                   compound  category_label
0  CCn1ncc2c(=O)[nH]c([C@@H]3CN(Cc4ccccc4)C[C@H]3C)nc21 (racemic)               N
1  C[C@@H]1CN(Cc2cc(F)cc(F)c2)C[C@H]1c1nc2c(cnn2C2CCOCC2)c(=O)[nH]1               Y
2  COc1ccc(CN2C[C@@H](C)[C@H](c3nc4c(cnn4C4CCCC4)c(=O)[nH]3)C2)cn1 (racemic)               N
3  CC[C@@H]1CN(Cc2cnc(C)nc2)C[C@H]1c1nc2c(cnn2C2CCOCC2)c(=O)[nH]1 (racemic)               N
4  CC(C)n1ncc2c(=O)[nH]c([C@@H]3CN(Cc4ccnc5ncccc45)C[C@H]3C)nc21               N

Problem: Quick check: does C[C@@H]1CN(Cc2ccc3nsnc3c2)C[C@H]1c1nc2c(cnn2C2CCOCC2)c(=O)[nH]1 have IC50 under 4 nM?
Solution: Y

Problem: Can you check O=c1[nH]c([C@@H]2CN(Cc3ccccc3)C[C@H]2C(F)(F)F)nc2c1cnn2C1CCCC1 (racemic) next?
Solution: N

Problem: Can you check C[C@@H]1CN(Cc2ccccc2)C[C@H]1c1nc2c(cnn2C2CCCC2)c(=O)[nH]1 next?
Solution: N

Problem: Can you check CC[C@@H]1CN(Cc2cccc(C#N)c2)C[C@H]1c1nc2c(cnn2C2CCOCC2)c(=O)[nH]1 next?
Solution: Y

Problem: Can you check C[C@@H]1CN(Cc2cnc3ccccc3n2)C[C@H]1c1nc2c(cnn2C2CCCC2)c(=O)[nH]1 (racemic) next?
Solution: N

Problem: Can you check CC[C@@H]1CN(Cc2ccc(C#N)cc2)C[C@H]1c1nc2c(cnn2C2CCOCC2)c(=O)[nH]1 next?
Solution: Y

Problem: Can you check CC[C@@H]1CN(Cc2ccc(OC)nc2)C[C@H]1c1nc2c(cnn2C2CCOCC2)c(=O)[nH]1 next?
Solution: Y

Problem: Can you check CN1C[C@@H](c2nc3c(cnn3C3CCCC3)c(=O)[nH]2)[C@H](C2CC2)C1 (racemic) next?
Solution: N

Problem: Can you check Cc1cnc(CN2C[C@@H](C)[C@H](c3nc4c(cnn4C(C)C)c(=O)[nH]3)C2)cn1 next?
Solution: N

Problem: Can you check C[C@@H]1CN(Cc2cccc(C(F)(F)F)c2)C[C@H]1c1nc2c(cnn2C2CCOCC2)c(=O)[nH]1 next?
Solution: Y

Problem: Can you check O=c1[nH]c([C@@H]2CN(Cc3ccccc3)C[C@H]2CC(F)(F)F)nc2c1cnn2C1CCCC1 (racemic) next?
Solution: N
